EXPERIMENT_DESCRIPTION: Salt/co-crystal screening: 38 acids, eight solvent systems, solids analysed by XRPD
Type: physicochemical
CONDITION_PARAMETERS: Acetone/Hexane (1:2, v/v); acid/freebase charge 1:1 unless label says 2:1; stirred at RT, else 5° C. slurry, anti-solvent addition or evaporation (footnote marks)
ENDPOINT: Solid obtained in salt screening (XRPD), solvent D Acetone/Hexane (1:2, v/v)

O=C(O)CCC(=O)O = amorphous*
CS(=O)(=O)O = gel
CCCCCC(=O)O = gel*
O=C(O)c1ccc2ccccc2c1O [1-hydroxy-2-naphthoic acid] = gel
CCC(=O)O = gel*
Nc1ccc(C(=O)O)c(O)c1 = gel

Find the recorded Solid obtained in salt screening (XRPD), solvent D Acetone/Hexane (1:2, v/v) belonging to O=C(O)CNC(=O)c1ccccc1 and report it. amorphous*

Dear colleague, I am looking for the recorded Solid obtained in salt screening (XRPD), solvent D Acetone/Hexane (1:2, v/v) of the following molecule: O=C(O)c1ccccc1 gel*

Look up Solid obtained in salt screening (XRPD), solvent D Acetone/Hexane (1:2, v/v) for this molecule: O=S(=O)(O)O gel
